Hi there, I'd appreciate the recorded CC50 at 24 h for every entry that follows.
# method description: in vitro
# run parameters: rat, gh3-tre-luc cells, AC50 (uM) modified / 1000
Counter-ions that a name gives are not always drawn.

molecule	experimental value
COc1cc(C(=O)OCCCN2CCCN(CCCOC(=O)c3cc(OC)c(OC)c(OC)c3)CC2)cc(OC)c1OC [Dilazep]	7.82 µM
COc1cc(OC)c2ccc(=O)oc2c1 [5,7-Dimethoxy-2H-chromen-2-one]	> 90 µM
COc1ccc(OC)c(C(O)C(C)N)c1 (centres unmarked) [Methoxamine hydrochloride]	> 50 µM
Nc1ccc([N+](=O)[O-])cc1 [4-Nitroaniline]	> 90 µM

For each of the items listed, what is its CC50 at 24 h?
1. COC(=O)/C=C/c1ccccc1 [Methyl (E)-cinnamate]
2. Cc1ccc(C(C)C)cc2c(C)ccc1-2 [Guaiazulene]
3. CC(C)(CO)[C@@H](O)C(=O)NCCC(=O)O [Calcium pantothenate]
4. CCCCCCCCCCCCc1ccccc1O [Dodecylphenol]
5. CCC(Cl)[N+](=O)[O-] (centres unmarked) [1-Chloro-1-nitropropane]
6. O=C1CCCCCN1SSN1CCCCCC1=O [1,1'-Disulfanediyldiazepan-2-one]
7. C=C(C)C(=O)Nc1ccc(Cl)c(Cl)c1 [Chloranocryl]

Ans.
1: > 90 µM; 2: > 50 µM; 3: > 50 µM; 4: 11.8 µM; 5: > 100 µM; 6: 53.9 µM; 7: > 90 µM

For each of the items listed, what is its CC50 at 24 h?
1. Cc1ccc2c(ccc3ccccc32)c1 [2-Methylphenanthrene]
2. CC(C)(C)NC[C@H](O)c1ccc(O)cc1Cl [Meluadrine]

Ans.
1: > 90 µM; 2: > 50 µM

The recorded CC50 at 24 h for entry CC(=O)N[C@@H](CCC(N)=O)C(=O)O [Nalpha-Acetyl-L-glutamine] equals > 50 µM

----------
# method description: in vitro
# run parameters: rat, gh3-tre-luc cells, AC50 (uM) modified / 1000
Hi there, I'd appreciate the recorded CC50 at 24 h for every entry that follows.

Please review the following examples before continuing.
molecule	CC50 at 24 h
N[C@@H](Cc1c[nH]c2ccc(O)cc12)C(=O)O [L-5-Hydroxytryptophan]	> 90 µM
O=[N+]([O-])c1ccc(CBr)cc1 [4-Nitrobenzylbromide]	> 100 µM

Okay, next one:
The recorded CC50 at 24 h for entry CCCCCCCCCCCC(=O)OCC(O)CO (stereo not drawn) [1-Monolaurin] equals > 90 µM

----------
# method description: in vitro
# run parameters: rat, gh3-tre-luc cells, AC50 (uM) modified / 1000
experimental readout: CC50 at 24 h

Please review the following examples before continuing.
O=C(O)c1ccc2cc(C(=O)O)ccc2c1 > 90 µM
NC(=O)c1nc(-c2cccc(-c3cc(F)ccc3OCC(F)(F)C(F)(F)F)c2)n[nH]1 53.5 µM

Okay, next one:
The recorded CC50 at 24 h for entry "COc1c(C)c2c(c(O)c1C/C=C(\C)CCC(=O)O)C(=O)OC2" equals 1.55 µM

----------
# method description: in vitro
# run parameters: rat, gh3-tre-luc cells, AC50 (uM) modified / 1000
Structures can show the parent of a compound that is named as a salt.
experimental readout: CC50 at 24 h

molecule	experimental readout	experimental value
CCNc1nc(NC(C)CC)nc(OC)n1 (centres unmarked) [Secbumeton]	CC50 at 24 h	> 90 µM

For each of the items listed, what is its CC50 at 24 h?
1. CCCCCCCCCCOC(=O)c1ccccc1C(=O)OCCCCCCCCCC [Didecyl phthalate]
2. CC(C)(O)c1ccccc1CC[C@@H](SCC1(CC(=O)O)CC1)c1cccc(/C=C/c2ccc3ccc(Cl)cc3n2)c1 [Montelukast sodium]
3. COc1cc2c(cc1OC)[C@@H](c1ccccc1)CN(C)CC2 [Trepipam maleate]

Ans.
> 90 µM
35.1 µM
> 50 µM

For each of the items listed, what is its CC50 at 24 h?
1. CN(C1CCCCC1)S(=O)(=O)c1ccccc1N
2. FC(Cl)(Cl)Cl [Trichlorofluoromethane]
3. CCOC(=O)c1ccc(OCCN2C[C@H](O)[C@@H](O)[C@H](O)[C@H]2CO)cc1 [Emiglitate]
4. CO[C@H]1C[C@@H]2CC[C@@H](C)[C@@](O)(O2)C(=O)C(=O)N2CCCC[C@H]2C(=O)O[C@H]([C@H](C)C[C@@H]2CC[C@@H](OCCO)[C@H](OC)C2)CC(=O)[C@H](C)/C=C(\C)[C@@H](O)[C@@H](OC)C(=O)[C@H](C)C[C@H](C)/C=C/C=C/C=C/1C [Everolimus]
5. Cc1ccc(S(=O)(=O)O)cc1C [Sodium xylenesulfonate]

Ans.
1. > 90 µM
2. > 90 µM
3. > 50 µM
4. 0.00998 µM
5. > 90 µM

For each of the items listed, what is its CC50 at 24 h?
1. CCCCCC(=O)O[C@]1(C(C)=O)CC[C@H]2[C@@H]3CCC4=CC(=O)CC[C@]4(C)[C@H]3CC[C@@]21C [Hydroxyprogesterone caproate]
2. O=C(O)c1cccc(/C=C2/C[C@@H]3[C@@H](/C=C/[C@@H](O)C4CCCCC4)[C@H](O)C[C@@H]3O2)c1 [Taprostene sodium salt]
3. CC1=CC(O)CC(C)(C)C1 (centres unmarked) [3,5,5-Trimethyl-2-cyclohexen-1-ol]
4. CC(C)CC(C)(N)C#N (centres unmarked) [2-Amino-2,4-dimethylpentanenitrile]
5. CC[C@@H](C(=O)[C@@H](C)[C@@H](O)[C@H](C)CCc1ccc(C)c(O)c1C(=O)O)[C@H]1O[C@](CC)([C@H]2CC[C@](O)(CC)[C@H](C)O2)C[C@@H]1C [Lasalocid sodium]

Ans.
1. 17.9 µM
2. > 50 µM
3. > 90 µM
4. > 90 µM
5. 2.85 µM

For each of the items listed, what is its CC50 at 24 h?
1. CN1CCN=C(c2ccccc2)c2cc(Cl)ccc21 [Medazepam]
2. O=C(Cl)c1c(Cl)cccc1Cl [2,6-Dichlorobenzoyl chloride]
3. COC1CCC=CO1 (centres unmarked) [3,4-Dihydro-2-methoxy-2H-pyran]
4. CN1[C@@H]2CC[C@H]1C[C@@H](OC(c1ccccc1)c1ccc(Cl)cc1)C2 (some centres unmarked) [Clobenztropine]
5. CS(=O)(=O)c1cc(C(F)(F)F)ccc1C(=O)c1cnoc1C1CC1 [Isoxaflutole]
6. CCCC(CCC)C(=O)O [Valproic acid]
7. Cc1cccc(C)c1NC(=O)CN(CC(=O)O)CC(=O)O [Lidofenin]
8. Sc1ncnc2nc[nH]c12 [6-Mercaptopurine monohydrate]

Ans.
> 50 µM
> 90 µM
> 90 µM
5.13 µM
> 90 µM
> 90 µM
> 50 µM
> 90 µM

The recorded CC50 at 24 h for entry O=C(O)/C=C/C(=O)O [Fumaric acid] equals > 100 µM

----------
# method description: in vitro
# run parameters: rat, gh3-tre-luc cells, AC50 (uM) modified / 1000
Hi there, I'd appreciate the recorded CC50 at 24 h for every entry that follows.

Please review the following examples before continuing.
compound	CC50 at 24 h
C=C(C)c1ccccc1	> 90 µM
CCCCCCC	> 100 µM
O=C(O)c1ccc2c(c1)C(=O)OC2=O [Trimellitic anhydride]	> 90 µM

Okay, next one:
The recorded CC50 at 24 h for entry CC(=O)C(Cl)C(=O)N(C)C (stereo not shown) [2-Chloro-N,N-dimethyl-3-oxobutanamide] equals > 90 µM

----------
# method description: in vitro
# run parameters: rat, gh3-tre-luc cells, AC50 (uM) modified / 1000
experimental readout: CC50 at 24 h

Please review the following examples before continuing.
molecule	experimental readout	experimental value
CC(C)=CCl [2,2-Dimethylvinyl chloride]	CC50 at 24 h	> 90 µM
Clc1ccc(-c2ccc(Cl)c(Cl)c2Cl)c(Cl)c1Cl	CC50 at 24 h	> 90 µM
O=C1CCC(C2CCCCC2)CC1	CC50 at 24 h	> 90 µM
CCN(C=O)CC [Diethylformamide]	CC50 at 24 h	> 90 µM
CC1(C)S[C@@H]2[C@H](NC(=O)C(C(=O)O)c3ccccc3)C(=O)N2[C@H]1C(=O)O (stereo partly drawn) [Carbenicillin disodium]	CC50 at 24 h	> 50 µM
CC(C)(C)C1CCC(=O)CC1	CC50 at 24 h	> 90 µM

For each of the items listed, what is its CC50 at 24 h?
1. CC(=O)OCC[N+](C)(C)C [Acetylcholine chloride]
2. CCCCCCCCCCl
3. NC/C=C/C(=O)O [(E)-4-amino-2-butenoic acid]
4. C=CC[C@@H]1/C=C(\C)C[C@H](C)C[C@H](OC)[C@H]2O[C@@](O)(C(=O)C(=O)N3CCCC[C@H]3C(=O)O[C@H](/C(C)=C/[C@@H]3CC[C@@H](O)[C@H](OC)C3)[C@H](C)[C@@H](O)CC1=O)[C@H](C)C[C@@H]2OC
5. CCC(CO)(CO)CO

Ans.
> 50 µM
> 90 µM
> 50 µM
> 50 µM
> 100 µM
